Reported pKi values for a set of molecules
# Assay explanation: Competitive inhibition of HSV-1 pyrimidine deoxythymidine kinase using 2-[14C]deoxythymidine as substrate
# Set-up: species or system Human alphaherpesvirus 1
pKi: −log10 of the molar value.
Result type: pKi

- Cc1cn([C@H]2C[C@H](O)[C@@H](C(=O)O)O2)c(=O)[nH]c1=O: 5.27
- NC(=O)[C@H]1O[C@@H](n2cc(I)c(O)nc2=O)C[C@@H]1O: 6.00
- CC(=O)O[C@H]1C[C@H](n2cc(F)c(=O)[nH]c2=O)O[C@@H]1C(N)=O: 3.02
- CC(=O)O[C@H]1C[C@H](n2cc(I)c(=O)[nH]c2=O)O[C@@H]1C#N: 4.74
- NC(=O)[C@H]1O[C@@H](n2ccc(O)nc2=O)C[C@@H]1O (stereo in doubt): 3.51
- COC(=O)[C@H]1O[C@@H](n2cc(I)c(=O)[nH]c2=O)C[C@@H]1O: 5.82
- CC(=O)O[C@H]1C[C@H](n2cc(I)c(=O)[nH]c2=O)O[C@@H]1C(N)=O: 4.70
- NC(=O)[C@H]1O[C@@H](n2cc(Br)c(O)nc2=O)C[C@@H]1O: 6.10
- NC(=O)[C@H]1O[C@@H](n2cc(F)c(=O)[nH]c2=O)C[C@@H]1O: 4.74
